# targetOrSystem: UniProt:Q16644
# Sequence (Q16644 whole entry, species assumed): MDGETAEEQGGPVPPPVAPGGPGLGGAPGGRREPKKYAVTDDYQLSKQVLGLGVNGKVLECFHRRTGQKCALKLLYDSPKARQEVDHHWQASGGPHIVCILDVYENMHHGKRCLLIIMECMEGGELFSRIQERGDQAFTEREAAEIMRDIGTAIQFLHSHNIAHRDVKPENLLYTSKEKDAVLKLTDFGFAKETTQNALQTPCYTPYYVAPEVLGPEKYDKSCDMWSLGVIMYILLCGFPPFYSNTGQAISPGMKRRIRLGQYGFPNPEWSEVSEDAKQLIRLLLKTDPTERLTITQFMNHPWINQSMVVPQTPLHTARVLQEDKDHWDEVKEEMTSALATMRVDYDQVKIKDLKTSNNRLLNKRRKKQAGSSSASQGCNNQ
# experiment: MK-3 inhibition IC50 (similar method to MK-2, with appropriate modifications)
# Format: biochemical
# assaySetup: Table 1, phenoxypyrazole MK-2 inhibitors; read-out: MK-3 Avg. IC50
Item-by-item account of IC50

input: Note IC50 for the compound shown: Nc1cc2c(cc1O)CCc1c-2nn2c1C(=O)NCCC2 [Example 45]
output: > 200 µM

input: Note down IC50 recorded for CCOC(=O)c1nn(-c2ccc(S(N)(=O)=O)cc2)c2c1CCc1cc(OC)c(OC)cc1-2 [Example 174]
output: > 200 µM

input: Specify IC50 for CCOC(=O)c1[nH]nc2c1CCc1c-2ccc(O)c1Br [Example 53] and stop.
output: > 200 µM
